tested target: His-tagged WT1RMF/HLA-A2 complex (human)
test protocol: SPR, Biacore 8K; antibody captured on Protein A chip, His-tagged complex as analyte; 1:1 Langmuir fit

binder: 1G7-IgG1-SI (antibody, V domains shown, VH and VL joined to IgG1 constant regions with SI mutations (S239D and I332E, EU numbering) in the Fc) VH: QVQLVESGGGVVRPGGSLRLSCTASGFTFDDYGMTWVRQAPGKGLEWVSGINWNGGSTGYADSVKGRFTISRDNAKNSLFLQMNSLRAEDTALYYCARDQGIAVVGTHYYYYYGMDVWGQGTAVTVSS VL: EIVLTQSPATLSLSPGERATLSCRASQSFSSYLAWYQQKPGQAPRLLIFDTSNRATGIPARFSGSGSGTDFTLTISSLEPEDFAVYYCQQRSNWPLTFGGGTKVEIK
Kd [nM]: 9.49
//
binder: 7B9-IgG1-SI (antibody, V domains shown, VH and VL joined to IgG1 constant regions with SI mutations (S239D and I332E, EU numbering) in the Fc; also called 7B9-IgGI-SI) VH: EVQLVESGGGVVQPGGSLRLSCAASGFTFDDYAMHWVRQAPGKGLEWVSLISGDDGSTYYADSMKGRITISRDNSKNSLYLQMNSLRTEDTAMYYCAKASYGSGSYLYNYGMDVWGQGTTVTVFS VL: DIQLTQSPSSLSASVGDRVTITCQASQDIINYLNWYQQKPGKAPKLLIYDTSNLETGVPSRFSGSGSGTDFAFTINSLQPEDIATYYCQQFVNLPLTFGGGTKVEIK
Kd [nM]: 15.3
//
binder: 3A6-IgG1-SI (antibody, V domains shown, VH and VL joined to IgG1 constant regions with SI mutations (S239D and I332E, EU numbering) in the Fc) VH: QVQLQESGPGMVKPSETLSLTCTVSGGSISYNYWSWIRQPPGKGLEWIGYIYHSGTTKYNPSLKSRVTMSVDTSKNHFSLKLNSVTAADTAVYYCARHEDYWFFDLWGRGTLVTVSS VL: DIQMTQSPSSLSASVGDRVTITCRASQGISNYLVWFQQKPGKAPKSLIYAASILQSGVPSKFSGSGSGTDFTLTINSLQPEDFATYYCQQYNTYPFTFGPGTKVDIK
Kd [nM]: 7100
//
binder: P01218-IgG1-SI (antibody, V domains shown, VH and VL joined to IgG1 constant regions with SI mutations (S239D and I332E, EU numbering) in the Fc; also called P01218-IgGI-SI) VH: EVQLVESGGGVVQPGRSLRLSCAASGFTFSSYAMHWVRQAPGKGLEWVAVISYDGSNKYYADSVKGRFTISRDNSKNTLYLQMNSLRAEDTAVYYCARAPYYGSGSYYNSYYYYHGMDVWGQGTTVTVSS VL: AIWMTQSPSSLSASVGDRVTITCQASQDISNYLNWYQQKPGKAPNLLIYDASNLETGVPSRFSGSGSGTDFTLTISSLQPEDIATYYCQQYDNLPLTFGGGTKVEIK
Kd [nM]: 16.1
//
binder: P01264-IgG1-SI (antibody, V domains shown, VH and VL joined to IgG1 constant regions with SI mutations (S239D and I332E, EU numbering) in the Fc) VH: EVQLVESGGGLVKPGGSLRLSCAASGFTFSNAWMNWVRQAPGKGLEWVGRIKSKTDGGTTDYAAPVKGRFTISRHDSKNTLYLQMNSLKTEDTAVYYCATDPRIAVTGTDYYYGMDVWGQGTTVTVSS VL: DIVMTQTPSFLSASVGDRVTITCRASQDISNYLNWYQQKPGKAPKLLIYDASNLETGVPSRFSGSGSGTDFTFTISSLQPEDIATYYCQQYDNLPITFGQGTRLEIK
Kd [nM]: 121
//
binder: 1E9-IgG1-SI (antibody, V domains shown, VH and VL joined to IgG1 constant regions with SI mutations (S239D and I332E, EU numbering) in the Fc; also called 1E9-IgGI-SI) VH: EVQMVESGGDVVRPGGSLRLSCAASGFMFDDYGMSWVRHVQGKGLEWVSGIDWNGDSTGYADSVKGRFTISRDNAKNSLYLQMNSLRAEDTALYYCARDQGIAVAGPYNYYYGMDVWGQGTTVTVSS VL: EIVLTQSPATLSLSPGERATLSCRASQSVSSYLAWYQEKPGQAPRLLIFDASNRATGIPARFSGSGSGTDFTLTISSLEPEDFAVYYCQQRSNWPFTFGPGTRVEIK
Kd [nM]: 22.4
